- measured-on: F protein of wild type RSV A/Long (respiratory syncytial virus strain …, UniProt P12568 26-574)
- Sequence (P12568 26-574): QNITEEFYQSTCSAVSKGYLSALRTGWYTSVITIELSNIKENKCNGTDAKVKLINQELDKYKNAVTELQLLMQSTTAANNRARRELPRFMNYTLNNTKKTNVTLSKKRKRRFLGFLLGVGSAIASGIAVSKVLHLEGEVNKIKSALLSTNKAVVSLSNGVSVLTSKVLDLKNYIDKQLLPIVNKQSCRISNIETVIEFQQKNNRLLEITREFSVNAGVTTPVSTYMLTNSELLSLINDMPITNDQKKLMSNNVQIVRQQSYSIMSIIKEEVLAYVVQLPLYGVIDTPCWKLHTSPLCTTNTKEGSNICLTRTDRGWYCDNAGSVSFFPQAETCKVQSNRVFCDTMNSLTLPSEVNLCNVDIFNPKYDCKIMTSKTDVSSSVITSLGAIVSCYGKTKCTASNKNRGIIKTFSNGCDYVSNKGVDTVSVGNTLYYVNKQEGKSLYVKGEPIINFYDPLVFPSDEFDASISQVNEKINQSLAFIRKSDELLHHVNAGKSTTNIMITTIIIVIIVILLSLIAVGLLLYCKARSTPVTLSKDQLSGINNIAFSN
- experimental-protocol: cell-based or functional assay
readout-name: Mean IC50 (Control), RSV microneutralization (mg/L)
// return numeric value only (unit: mg/L, not printed)

Use these answered entries as a reference point.
>>> reported("A13c4 (monoclonal antibody) (antibody, V domains shown, mAb with framework and constant regions of SYNAGIS) VH: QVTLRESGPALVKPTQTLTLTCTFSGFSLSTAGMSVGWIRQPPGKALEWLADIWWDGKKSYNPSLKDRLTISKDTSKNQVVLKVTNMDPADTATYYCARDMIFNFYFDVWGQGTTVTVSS VL: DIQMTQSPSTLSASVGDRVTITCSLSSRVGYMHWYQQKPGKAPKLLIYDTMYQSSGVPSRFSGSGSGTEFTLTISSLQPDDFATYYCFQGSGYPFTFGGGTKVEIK")
0.0375
>>> reported("A13c4 (Fab fragment) (Fab, V domains shown, Fab) VH: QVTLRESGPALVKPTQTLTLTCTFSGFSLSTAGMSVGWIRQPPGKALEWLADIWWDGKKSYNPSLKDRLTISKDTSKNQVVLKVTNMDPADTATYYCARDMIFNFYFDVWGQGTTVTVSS VL: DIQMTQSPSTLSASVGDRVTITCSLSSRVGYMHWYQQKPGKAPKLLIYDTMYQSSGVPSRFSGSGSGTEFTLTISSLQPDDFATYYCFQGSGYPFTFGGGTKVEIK")
0.0258

Okay, next one:
The value of Mean IC50 (Control), RSV microneutralization measured for the binder P12f4 (Fab fragment) (Fab, V domains shown, Fab) VH: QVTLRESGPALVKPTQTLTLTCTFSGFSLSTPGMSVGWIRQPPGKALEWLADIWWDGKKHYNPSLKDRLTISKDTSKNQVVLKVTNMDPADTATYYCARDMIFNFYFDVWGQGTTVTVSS VL: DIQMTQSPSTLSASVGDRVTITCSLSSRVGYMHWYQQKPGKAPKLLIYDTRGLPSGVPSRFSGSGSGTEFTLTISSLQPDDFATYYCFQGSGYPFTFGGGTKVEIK turned out to be 0.0351

Origin of measurements: patent US20030091584A1
